target: human ether-à-go-go-related gene (hERG) potassium channel (human, UniProt Q12809); test: primary screen, population patch clamp on CHO cells stably expressing hERG; higher = less effect of the substance
Sequence (Q12809 whole entry, looked up): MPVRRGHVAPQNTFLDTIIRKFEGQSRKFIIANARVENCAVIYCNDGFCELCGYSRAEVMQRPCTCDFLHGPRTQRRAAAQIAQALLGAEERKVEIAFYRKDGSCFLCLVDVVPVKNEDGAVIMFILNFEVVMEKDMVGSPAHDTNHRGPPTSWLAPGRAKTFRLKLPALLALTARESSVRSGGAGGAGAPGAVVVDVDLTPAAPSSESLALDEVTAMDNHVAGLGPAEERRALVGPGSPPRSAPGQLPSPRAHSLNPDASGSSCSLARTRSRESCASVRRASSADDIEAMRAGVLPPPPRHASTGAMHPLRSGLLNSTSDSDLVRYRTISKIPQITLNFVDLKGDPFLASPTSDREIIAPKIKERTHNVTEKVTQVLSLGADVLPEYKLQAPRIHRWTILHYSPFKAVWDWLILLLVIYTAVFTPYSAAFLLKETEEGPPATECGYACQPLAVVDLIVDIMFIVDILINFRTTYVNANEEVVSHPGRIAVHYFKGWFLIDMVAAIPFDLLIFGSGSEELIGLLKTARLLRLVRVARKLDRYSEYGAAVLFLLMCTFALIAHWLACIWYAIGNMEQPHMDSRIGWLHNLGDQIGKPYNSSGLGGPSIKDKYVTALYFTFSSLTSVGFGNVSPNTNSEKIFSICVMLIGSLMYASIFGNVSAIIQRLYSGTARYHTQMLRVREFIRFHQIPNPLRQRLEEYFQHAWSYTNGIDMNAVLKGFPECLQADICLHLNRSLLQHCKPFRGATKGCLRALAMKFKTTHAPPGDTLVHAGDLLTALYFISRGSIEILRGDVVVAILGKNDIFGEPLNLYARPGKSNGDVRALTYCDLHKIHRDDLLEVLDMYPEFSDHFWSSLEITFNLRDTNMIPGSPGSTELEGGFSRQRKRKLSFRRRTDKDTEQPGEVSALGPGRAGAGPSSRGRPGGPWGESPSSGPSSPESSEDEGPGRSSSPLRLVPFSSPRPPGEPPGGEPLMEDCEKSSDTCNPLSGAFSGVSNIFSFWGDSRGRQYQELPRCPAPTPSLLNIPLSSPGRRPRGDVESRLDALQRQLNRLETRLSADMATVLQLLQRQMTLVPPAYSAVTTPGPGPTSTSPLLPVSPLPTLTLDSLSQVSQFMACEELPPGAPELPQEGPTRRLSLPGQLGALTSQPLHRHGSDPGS
About 14,000 (4.5%) of roughly 310,000 compounds showed an effect of 50% or more. Effects have a minus sign here. Many of the other results were omitted from the sample, so strong results are more common in it than they were.
# reported hERG current change (%, negative = inhibition) at 10uM; entries follow
Give your result in % as a bare value.

Give its hERG current change (%, negative = inhibition) at 10uM value. Item: CN1c2ccccc2C(C)(C)C12C=Cc1cc(O)ccc1O2 (centres unmarked)
-5.61

And Clc1ccc(OCCCNCc2ccccc2)c(Br)c1.O=C(O)C(=O)O ?
-64.4

Same for CCN(CC)CCN1CCn2c3c(c4cc(C)ccc42)CCCC31.Cl (centres unmarked)
-76.3

Let us now turn to CN(C)CCN(CC1CCCN(Cc2ccccc2F)C1)C(=O)c1ccc(F)cc1 (centres unmarked)
3.46

// query: COc1cccc(NC(=S)N(C)C2CCN(C)CC2)c1
11

Repeat for the following compound: O=c1nc2ccccc2c2n1CC(CN1CCN(c3cccc(Cl)c3)CC1)N2 (centres unmarked)
-63.3

Now consider Br.Cc1nc(C)c(-c2csc(Nc3cccc(O)c3)n2)s1 .
6.25

Could you do the same for CCc1cc(OCCCCNCc2ccccc2)ccc1Cl.O=C(O)C(=O)O , please?
-25.6

Same read-out for O=C(CCCOc1ccc(Cl)cc1Cl)N/N=C/c1cccc([N+](=O)[O-])c1 ?
9.56

====

The entries below are paired with their reported hERG current change (%, negative = inhibition) at 10uM.
target: human ether-à-go-go-related gene (hERG) potassium channel (human, UniProt Q12809); test: primary screen, population patch clamp on CHO cells stably expressing hERG; higher = less effect of the substance
Screen size: about 310,000 compounds; about 14,000 (4.5%) showed an effect of 50% or more. Effects have a minus sign here. The full list was thinned out, with strong results kept by preference.
A number alone suffices; assume %.

Please review the entries below; each comes with its answer.
>>> recorded_measurement("O=C(COc1cccc(Cl)c1)NCc1ccccc1")
18.9
>>> recorded_measurement("CCOc1ncccc1C(=O)N1CCN(c2cc(Cl)ccc2C)CC1")
-4.75
>>> recorded_measurement("O=C1N=C(N2CCOCC2)S/C1=C/c1ccc(-c2ccc(F)cc2)o1")
2.43

Could you share which hERG current change (%, negative = inhibition) at 10uM value was measured for CCc1ccc(NC(=O)CS(=O)CC(=O)NC(C)CCc2ccco2)cc1 (stereo not shown) ?
9.65

Follow-up item: CC(=C/c1ccccc1)/C=C1/SC(N2CCOCC2)=NC1=O
-20.1

====

Recorded hERG current change (%, negative = inhibition) at 10uM, one value per entry.
molecular target: human ether-à-go-go-related gene (hERG) potassium channel (human, UniProt Q12809); test: primary screen, population patch clamp on CHO cells stably expressing hERG; higher = less effect of the substance
The whole screen tested about 310,000 compounds, of which about 14,000 (4.5%) showed an effect of 50% or more. Effects have a minus sign here. Many of the other results were omitted from the sample, so strong results are more common in it than they were.
Quick note: give the figure in %, leave out the unit.

Example entries begin here.
>>> recorded_measurement("O=C1CN=C(c2ccccc2)c2ccccc2N1")
8.11
>>> recorded_measurement("O=C(CNC(=O)c1cccc(Br)c1)N/N=C/c1cccnc1")
-14
>>> recorded_measurement("O=c1[nH]c(NCCO)nc2c1C1(CCCCC1)Cc1ccccc1-2")
7.03
>>> recorded_measurement("CN(C(=O)CSc1nnc(-c2ccccc2)o1)c1c(N)n(Cc2ccccc2)c(=O)[nH]c1=O")
12
>>> recorded_measurement("O=C(Cc1cccs1)Nc1nnc(SCC(=O)NC2CCCCC2)s1")
7.84
>>> recorded_measurement("Cc1ccc(Nc2ncnc3c2nnn3Cc2ccccc2)cc1")
8.07

Given the entry CCN(CC(=O)Nc1ccc(C(=O)OC)cc1)C1CCCCC1 , report its measured hERG current change (%, negative = inhibition) at 10uM.
-1.85

Further, for CCC(=O)N1CCN(c2ccc(Cl)cc2NC(=O)c2ccc3c(c2)OCCO3)CC1 ?
-37.2

// same read-out, input: CSC[C@H](NC(=O)Cc1c(C)c2cc3c(C)c(C)oc3cc2oc1=O)C(=O)N[C@@H](Cc1ccccc1)C(=O)O
1.76

====

# key: entry, value: hERG current change (%, negative = inhibition) at 10uM
target: human ether-à-go-go-related gene (hERG) potassium channel (human, UniProt Q12809); assay: primary screen, population patch clamp on CHO cells stably expressing hERG; higher = less effect of the substance;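 further: peak tail current of the secondary pulse compared with the same well before compound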
The campaign covered roughly 310,000 compounds. About 14,000 (4.5%) showed an effect of 50% or more. Effects have a minus sign here. The entries come from a sample that favours strong results as a whole.

The examples below pair each entry with its known result.
>>> recorded_measurement("COC(=O)c1[nH]c2cccc(C)c2c1NC(=O)CN1CCN(C(=O)c2ccco2)CC1")
"-16.9%"
>>> recorded_measurement("O=[N+]([O-])c1ccccc1Sc1nccn1Cc1ccccc1")
"-21.6%"
>>> recorded_measurement("c1ccc(-c2nnc(C(c3ccccc3)c3ccccc3)o2)cc1")
"6.86%"
>>> recorded_measurement("Cc1ccc(OCC(=O)NC(C)c2ccc(Cl)c(Cl)c2)c([N+](=O)[O-])n1 (centres unmarked)")
"-21.4%"

Moving on to the next compound.
Query for human ether-à-go-go-related gene (hERG) potassium channel (human, UniProt Q12809): what hERG current change (%, negative = inhibition) at 10uM does the record show for O=C(CSc1nccn1Cc1ccccc1)Nc1ccccc1 ?
12.4%

====

Property: hERG current change (%, negative = inhibition) at 10uM; scope: individual compounds
target: human ether-à-go-go-related gene (hERG) potassium channel (human); experiment: primary screen, population patch clamp on CHO cells stably expressing hERG; higher = less effect of the substance;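 further: peak tail current of the secondary pulse compared with the same well before compound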
Out of some 310,000 compounds screened, about 14,000 (4.5%) showed an effect of 50% or more. The effect is printed as a negative number. The entries come from a sample that favours strong results as a whole.

State its hERG current change (%, negative = inhibition) at 10uM on human ether-à-go-go-related gene (hERG) potassium channel (human): O=S(=O)(c1ccccc1)N1CCN(C2CCN(Cc3ccccc3)CC2)CC1
-64%

Next up: Cn1c(=O)c(=O)n(C)c2cc(S(=O)(=O)N3CC(=O)N(CCc4ccccc4)C(=O)C3)ccc21
19.4%

Further, for O=S(=O)(c1ccc(Cl)cc1)N1CCN(C2CCN(Cc3ccccc3)CC2)CC1 ?
-71.4%

And the next one, CSc1ccc(CCNC(=O)c2ccc(CS(=O)Cc3ccccc3Cl)o2)cc1 (centres unmarked) ?
-2.87%

Similarly, CSc1ncc(/C=C2/C(=O)NC(=O)N(C)C2=O)cn1 ?
18.8%

====

target: human ether-à-go-go-related gene (hERG) potassium channel (human); test: primary screen, population patch clamp on CHO cells stably expressing hERG; higher = less effect of the substance;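 further: peak tail current of the secondary pulse compared with the same well before compound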
Among all 310,000 compounds or so, about 14,000 (4.5%) showed an effect of 50% or more. Effects have a minus sign here. Many of the other results were omitted from the sample, so strong results are more common in it than they were.
Label TRUE when hERG current change (%, negative = inhibition) at 10uM >= -20%; otherwise FALSE.

See these solved cases before continuing.
>>> class("Cc1cccc(C(=O)N2CCCC(CCC(=O)N3CCN(c4ccccn4)CC3)C2)c1C (stereo not drawn)")
"TRUE"
>>> class("CCc1ccc(OCCOCC(O)CN2CCN(Cc3ccc(Cl)cc3)CC2)cc1.Cl (stereo not drawn)")
"FALSE"
>>> class("C[C@H](NC(=O)c1ccco1)C(=O)N1CCCC1")
"TRUE"
>>> class("CCN1CCN(CC(O)COc2ccc(Cl)cc2)CC1.Cl (stereo not drawn)")
"FALSE"
>>> class("COc1cccc(NC(=O)C(Cc2ccccc2)n2cccc2)c1 (stereo not drawn)")
"TRUE"
>>> class("CCOC(=O)c1c(C)oc2c1cc(NS(=O)(=O)c1ccc(C(=O)O)cc1)c1ccccc12")
"FALSE"
>>> class("Cc1cccc(NC(=O)C(Cc2ccccc2)n2cccc2)c1 (stereo not drawn)")
"FALSE"
>>> class("CCOC(=O)C1(Cc2ccc(OC)cc2)CCN(C(=O)CCc2cnccn2)CC1")
"TRUE"

Continue with the compound presented below.
# check: hERG current change (%, negative = inhibition) at 10uM of CCc1ccc(OCC(O)CN2CCCC2)cc1.Cl (stereo not drawn) is greater than or equal to -20%
TRUE

====

hERG current change (%, negative = inhibition) at 10uM for assorted compounds
target: human ether-à-go-go-related gene (hERG) potassium channel (human); experiment: primary screen, population patch clamp on CHO cells stably expressing hERG; higher = less effect of the substance;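 further: peak tail current of the secondary pulse compared with the same well before compound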
Screen size: about 310,000 compounds; about 14,000 (4.5%) showed an effect of 50% or more. Effects have a minus sign here. What follows is part of a selection rich in strong results, with near analogues and random picks from the rest.
Give the quantity in %, number only.

// solved cases for hERG current change (%, negative = inhibition) at 10uM follow
>>> recorded_measurement("CC(NC(=O)c1ccc(OC2CCN(Cc3ccccn3)CC2)cc1)c1ccccc1 (centres unmarked)")
-20.3
>>> recorded_measurement("CN(Cc1nccs1)C(=O)c1ccc(OC2CCN(Cc3ccccn3)CC2)cc1")
-11.5
>>> recorded_measurement("CN(Cc1cnn(C)c1)C(=O)c1ccc(OC2CCN(CCc3ccccc3)CC2)cc1")
-42.9
>>> recorded_measurement("O=C(c1ccc(-c2ccccc2)c(F)c1)C1CCCN(C(=O)c2cncs2)C1 (centres unmarked)")
-18.4

As a next step, examine the compound that follows.
hERG current change (%, negative = inhibition) at 10uM lookup needed for COCC(=O)N1CCCC(C(=O)c2ccc(-c3ccccc3)c(F)c2)C1 (centres unmarked) , thanks.
-23.3
